Data provenance: patent US9957264B2

Molecular target: JAK2 (recombinant purified GST-tagged catalytic domain) (Homo sapiens (Human), UniProt O60674)
Sequence (O60674 849-1124): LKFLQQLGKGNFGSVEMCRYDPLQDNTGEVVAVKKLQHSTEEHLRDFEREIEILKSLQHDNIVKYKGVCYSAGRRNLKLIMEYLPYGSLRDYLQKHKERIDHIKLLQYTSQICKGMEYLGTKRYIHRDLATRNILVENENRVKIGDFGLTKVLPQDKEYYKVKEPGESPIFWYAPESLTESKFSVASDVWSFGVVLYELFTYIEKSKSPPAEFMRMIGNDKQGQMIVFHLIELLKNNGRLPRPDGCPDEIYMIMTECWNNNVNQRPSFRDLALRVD
Test: Jak Biochemical HTRF Assay (JAK2)
Conditions: [ATP] 8.5 μM
pIC50: −log10 of the molar value.
Quantity: pIC50

Here is how some molecules turned out for pIC50.
CC(C)(C)OC(=O)N1CCC(CC#N)(n2nc(Nc3ccc([C@]4(C(F)(F)F)CCCCN4)cc3)c3c(=O)[nH]ccc32)CC1 (single isomer, unassigned) : 9.19
CN(C)S(=O)(=O)c1ccc(Nc2nn(C3(CC#N)CCN(C(=O)CCc4ccccc4)CC3)c3cc[nH]c(=O)c23)cc1 : 9.15
CS(=O)(=O)c1ccc(Nc2nn(C3(CC#N)CCN(c4ccc(C(F)(F)F)cn4)CC3)c3cc[nH]c(=O)c23)cc1 : 9.26

[I] COC(=O)N1CCC(CC#N)(n2nc(Nc3ccc4ncccc4c3)c3c(=O)[nH]ccc32)CC1
[II] CCS(=O)(=O)c1ccc(Nc2nn(C3(CC#N)CCCC3)c3cc[nH]c(=O)c23)cc1
Q. Select the item whose pIC50 value is smaller, choosing between I and II . Identify your pick by its label.
A. II
(II: 8.86, I: 9.08)
